test system: MALME-3M melanoma; assay: NCI tumour cell line growth inhibition, 48 h
Quick list: TGI per entry.

Here is how some molecules turned out for TGI.
- MOLECULE: "COC1=CC(=O)C2C(C1=O)C(c1ccc(OC)c(OC)c1)[C@H]2C (stereo partly specified)"
  VALUE REPORTED: "35.3 µM"
- MOLECULE: "O=S(=O)(CCCCl)SCCCCl"
  VALUE REPORTED: "> 83.8 µM"
- MOLECULE: "COc1cc2c(cc1OC)C(=O)/C(=C/c1ccc([N+](=O)[O-])cc1)CC2"
  VALUE REPORTED: "> 10 µM"

Supply reported TGI belonging to this molecule: `Cc1c(CC/C(=N\Nc2ccc([N+](=O)[O-])cc2[N+](=O)[O-])c2ccccc2)c2ccccc2n1C`
> 100 µM

Supply reported TGI belonging to this molecule: `COc1ccc2nc3ccccc3c(NCc3ccc(C)cc3)c2c1`
3.29 µM

Supply reported TGI belonging to this molecule: `CCOC(=O)C(C(=O)OCC)=c1sc(=C(C(=O)OCC)C(=O)OCC)s1`
> 100 µM
